system: A-431; test: Antiproliferative activity against human A431 cells at 3 ug/ml after 48 hrs by MTT assay; type: cell-based; details: a-431, 48 h
measurementType: Activity (%)
Value expressed in %; do not type the unit.

Examples with their reported Activity follow.
# molecularString, Activity / %
rows = [
    ("O=C1CSc2ccccc2N1Cc1cn(Cc2ccccc2)nn1", 0),
    ("O=C1CSc2ccccc2N1Cc1cn(Cc2ccccc2Cl)nn1", 15.4),
    ("O=C1CSc2ccccc2N1Cc1cn(Cc2cccc([N+](=O)[O-])c2)nn1", 13.9),
    ("O=C1CSc2ccccc2N1Cc1cn(-c2ccc([N+](=O)[O-])cc2)nn1", 0),
    ("O=C1CSc2ccccc2N1Cc1cn(-c2cccc([N+](=O)[O-])c2)nn1", 17.2),
]

Could you tell me which Activity is on file for O=C1CSc2ccccc2N1Cc1cn(Cc2ccc(F)cc2)nn1 ? 17.3

Can you check O=C1CSc2ccccc2N1Cc1cn(Cc2ccc([N+](=O)[O-])cc2)nn1 next? 10.8

What do you get for O=C1CSc2ccccc2N1Cc1cn(Cc2ccc(Cl)cc2)nn1 ? 35

Note, next up: O=C1CSc2ccccc2N1Cc1cn(Cc2ccc(Br)cc2)nn1 8.6

Please do the same for O=C1CSc2ccccc2N1Cc1cn(Cc2cccc(Cl)c2)nn1 as well. -6.3

---

assay: Antioxidant activity assessed as DPPH radical scavenging activity by spectrophotometric assay; type: physicochemical
// NB: equality with 30 µg/mL counts as Criterion not met; only IC50 strictly below is Criterion met

# molecule, assignedClass
records = [
    ("O=C1CSc2ccccc2N1Cc1cn(Cc2cccc(Cl)c2)nn1", "Criterion not met"),
    ("O=C1CSc2ccccc2N1Cc1cn(Cc2ccccc2Cl)nn1", "Criterion met"),
    ("Cc1cc(C(C)(C)C)c(O)c(C(C)(C)C)c1 [BUTYLATED HYDROXYTOLUENE]", "Criterion met"),
    ("O=C1CSc2ccccc2N1Cc1cn(-c2cccc([N+](=O)[O-])c2)nn1", "Criterion not met"),
    ("O=C1CSc2ccccc2N1Cc1cn(Cc2ccc(Br)cc2)nn1", "Criterion met"),
    ("O=C1CSc2ccccc2N1Cc1cn(Cc2ccc(F)cc2)nn1", "Criterion met"),
    ("O=C1CSc2ccccc2N1Cc1cn(Cc2cccc([N+](=O)[O-])c2)nn1", "Criterion not met"),
    ("O=C1CSc2ccccc2N1Cc1cn(Cc2ccc(Cl)cc2)nn1", "Criterion not met"),
]

Does the reported IC50 of O=C1CSc2ccccc2N1Cc1cn(Cc2ccccc2)nn1 stay below 30 µg/mL? Criterion not met

Would you mind doing O=C1CSc2ccccc2N1Cc1cn(Cc2ccc([N+](=O)[O-])cc2)nn1 as well? Criterion met

Same again, this time with O=C1CSc2ccccc2N1Cc1cn(-c2ccc([N+](=O)[O-])cc2)nn1 Criterion not met

---

assay: Cytotoxicity against human A431 cells assessed as growth inhibition after 48 hrs by MTT assay; format: cell-based, A-431
measurementType: GI50 at 48 h

Below: 2 compounds and their reported GI50 at 48 h.
# compound, GI50 at 48 h
rows = [
    ("CC(=O)O[C@H]1C(=O)[C@@]2(C)[C@H]([C@H](OC(=O)c3ccccc3)[C@]3(O)C[C@H](OC(=O)[C@H](O)[C@@H](NC(=O)c4ccccc4)c4ccccc4)C(C)=C1C3(C)C)[C@]1(OC(C)=O)CO[C@@H]1C[C@@H]2O [PACLITAXEL]", "0.0023 µg/mL"),
    ("O=C1CSc2ccccc2N1Cc1cn(Cc2ccc(Cl)cc2)nn1", "27.3 µg/mL"),
]

Can you share its GI50 at 48 h? I mean this compound: O=C1CSc2ccccc2N1Cc1cn(Cc2ccccc2Cl)nn1 > 30 µg/mL

Same again, this time with O=C1CSc2ccccc2N1Cc1cn(Cc2cccc([N+](=O)[O-])c2)nn1 > 30 µg/mL

Would you mind doing O=C1CSc2ccccc2N1Cc1cn(Cc2ccc([N+](=O)[O-])cc2)nn1 as well? > 30 µg/mL

---

Below, each entry is listed alongside its reported Activity.
tested on: HeLa; assay: Antiproliferative activity against human HeLa cells at 3 ug/ml after 72 hrs by MTT assay; format: cell-based
State the answer as a number, implicitly in %.

Known Activity results, listed for orientation:
# molecularString, unitsText, number
rows = [
    ("O=C1CSc2ccccc2N1Cc1cn(Cc2ccc([N+](=O)[O-])cc2)nn1", "%", 36.5),
    ("O=C1CSc2ccccc2N1Cc1cn(Cc2cccc([N+](=O)[O-])c2)nn1", "%", 0),
    ("O=C1CSc2ccccc2N1Cc1cn(Cc2ccccc2Cl)nn1", "%", 48.1),
]

# next compound below
// lookup Activity for O=C1CSc2ccccc2N1Cc1cn(Cc2ccc(Br)cc2)nn1 40.4

---

Recorded GI50 at 48 h for the following molecules
assay: Cytotoxicity against human A431 cells assessed as growth inhibition after 48 hrs by MTT assay; format: cell-based, A-431

Sample records with GI50 at 48 h:
# molecularString, result
measured = [
    ("O=C1CSc2ccccc2N1Cc1cn(-c2cccc([N+](=O)[O-])c2)nn1", "> 30 µg/mL"),
    ("O=C1CSc2ccccc2N1Cc1cn(-c2ccc([N+](=O)[O-])cc2)nn1", "> 30 µg/mL"),
    ("O=C1CSc2ccccc2N1Cc1cn(Cc2ccc(F)cc2)nn1", "> 30 µg/mL"),
]

Requested read-out: GI50 at 48 h. Entry: O=C1CSc2ccccc2N1Cc1cn(Cc2ccccc2)nn1 > 30 µg/mL

What about this molecule? O=C1CSc2ccccc2N1Cc1cn(Cc2ccc(Br)cc2)nn1 > 30 µg/mL

Moving on to O=C1CSc2ccccc2N1Cc1cn(Cc2cccc(Cl)c2)nn1 > 30 µg/mL
